# Tested on: PC-3
# Protocol Summary: NCI one-dose assay
# Assay type: cell-based
# Particulars: Homo sapiens, PC-3, Prostate cancer, read-out: Cell growth inhibition %
# Protocol: The National Cancer Institute (NCI), Bethesda, USA, selected the final compounds 6a–j and 7a–j for in vitro anticancer screening. An initial in vitro single-dose anticancer experiment was performed with the entire NCI 60 cell lines derived from nine tumor subpanel cancer cell lines. The results for each compound were illustrated as a mean graph showing the percentage growth of treated cells compared to untreated control cells (see Supplementary Materials). […]
Category | rule: reported inhibition at 10 µM within range, see band 1: < 20%; band 2: ≥ 20% and < 60%; band 3: ≥ 60%

> print(dat)
                                         smi  label.class
 1  COc1ccc(C(=O)CSc2nnc(-c3c[nH]c4ccccc34)n2-c2ccccc2)cc1       band 2
 2  C=CCn1c(SC/C(=N\O)c2ccc(C)cc2)nnc1-c1c[nH]c2ccccc12       band 1
 3  C=CCn1c(SCC(=O)c2ccc(Cl)cc2)nnc1-c1c[nH]c2ccccc12       band 2
 4  COc1ccc(/C(CSc2nnc(-c3c[nH]c4ccccc34)n2-c2ccccc2)=N/O)cc1       band 3
 5  C=CCn1c(SC/C(=N\O)c2ccc(Br)cc2)nnc1-c1c[nH]c2ccccc12       band 2
 6  C=CCn1c(SCC(=NO)c2ccc(OC)cc2)nnc1-c1c[nH]c2ccccc12       band 1
 7  C=CCn1c(SCC(=O)c2ccc(Br)cc2)nnc1-c1c[nH]c2ccccc12       band 2
 8  O/N=C(\CSc1nnc(-c2c[nH]c3ccccc23)n1-c1ccccc1)c1ccc(Cl)cc1       band 3
 9  Cc1ccc(C(=O)CSc2nnc(-c3c[nH]c4ccccc34)n2-c2ccccc2)cc1       band 2
10  O/N=C(\CSc1nnc(-c2c[nH]c3ccccc23)n1-c1ccccc1)c1ccc(Br)cc1       band 3
11  O=C(CSc1nnc(-c2c[nH]c3ccccc23)n1-c1ccccc1)c1ccccc1       band 2
